Below, each of the molecules is paired with its reported Ratio (AD50 mouse writhing test / ED50 mouse diarrhea test) value.
Test System: peripheral opioid receptors (Mus musculus)
Construct: Mice maintained (6 mice/cage) on 0.01M saccharin water with 1 g/1 morphine sulfate; from tissue; host or cells: living morphine-maintained mice (in vivo test; endogenous receptor)
Sequence (P42866 whole entry): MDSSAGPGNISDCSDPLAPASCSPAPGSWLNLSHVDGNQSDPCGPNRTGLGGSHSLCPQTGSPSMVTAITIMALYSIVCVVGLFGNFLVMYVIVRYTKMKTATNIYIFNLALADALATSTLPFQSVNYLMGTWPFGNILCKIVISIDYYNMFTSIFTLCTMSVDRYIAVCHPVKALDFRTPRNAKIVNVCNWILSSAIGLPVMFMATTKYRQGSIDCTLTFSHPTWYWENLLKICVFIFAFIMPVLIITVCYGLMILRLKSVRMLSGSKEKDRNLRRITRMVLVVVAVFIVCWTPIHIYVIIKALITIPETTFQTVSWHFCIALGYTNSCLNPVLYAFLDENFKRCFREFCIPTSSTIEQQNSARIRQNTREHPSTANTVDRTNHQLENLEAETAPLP
Experiment Notes: precipitated diarrhea in morphine-maintained mice (peripheral opioid activity) and comparison with the writhing test
Assay type: in vivo
Experimental Context: higher ratio = greater relative antagonism of peripheral opioid receptors
Where a name gives a salt, the structure may show the parent alone.
Quantity: Ratio (AD50 mouse writhing test / ED50 mouse diarrhea test)

Molecule: CCNC(=O)CCCNC(=O)C(CC1CCCCC1)CN1CC[C@@](C)(c2cccc(O)c2)[C@@H](C)C1 (stereo partly drawn) [Example 42, monohydrate hydrochloride]
Relation Operator: =
Value Observed: 8

Molecule: CC(C)CNC(=O)CNC(=O)C(Cc1ccccc1)CN1CC[C@@](C)(c2cccc(O)c2)[C@@H](C)C1 (stereo partly drawn) [Example 50, monohydrate hydrochloride]
Relation Operator: =
Value Observed: 26

Molecule: C[C@H]1CN(CCC(C(=O)O)c2ccccc2)CC[C@@]1(C)c1cccc(O)c1 (relative stereo) [Example 8B, hydrochloride]
Relation Operator: =
Value Observed: 53

Molecule: C[C@H]1CN(CCC(C(=O)N(C)C)c2ccccc2)CC[C@@]1(C)c1cccc(O)c1 (relative stereo) [Example 10, hydrochloride]
Relation Operator: =
Value Observed: 9

Molecule: C[C@H]1CN(CC(Cc2ccccc2)C(=O)NCC(=O)NCC(=O)O)CC[C@@]1(C)c1cccc(O)c1 (relative stereo) [Example 68, monohydrate]
Relation Operator: >
Value Observed: 174

Molecule: CCNC(=O)CNC(=O)C(CCN1CC[C@@](C)(c2cccc(O)c2)[C@@H](C)C1)c1ccccc1 (relative stereo) [Example 15, monohydrochloride monohydrate]
Relation Operator: >
Value Observed: 133
